Hey, just so you know, these numbers are from patent US6124269A.

Streptococcus pneumoniae GYR 1171: reported MIC for various compounds.
Unit µg/mL implied. Number only.

Record excerpt, results attached:
>>> observed_measurement("CC[C@H]1OC(=O)[C@@](C)(F)C(=O)[C@H](C)[C@@H](O[C@@H]2O[C@H](C)C[C@H](N(C)C)[C@H]2O)[C@](C)(OC/C=C/c2cnc3ccc(NC)cc3c2)C[C@@H](C)C(=O)[C@H](C)[C@H]2NC(=O)O[C@@]21C")
0.03
>>> observed_measurement("CC[C@H]1OC(=O)[C@@](C)(F)C(=O)[C@H](C)[C@@H](O[C@@H]2O[C@H](C)C[C@H](N(C)C)[C@H]2O)[C@](C)(OC/C=C/c2cnc3ccc(C=NN=C(C)C)cc3c2)C[C@@H](C)C(=O)[C@H](C)[C@H]2NC(=O)O[C@@]21C")
0.06
>>> observed_measurement("CC[C@H]1OC(=O)[C@H](C)[C@@H](O[C@H]2C[C@@](C)(OC)[C@@H](O)[C@H](C)O2)[C@H](C)[C@@H](O[C@@H]2O[C@H](C)C[C@H](N(C)C)[C@H]2O)[C@](C)(O)C[C@@H](C)C(=O)[C@H](C)[C@@H](O)[C@]1(C)O [Ery. A, Erythromycin A, reference compound]")
0.06
>>> observed_measurement("CC[C@H]1OC(=O)[C@@](C)(F)C(=O)[C@H](C)[C@@H](O[C@@H]2O[C@H](C)C[C@H](N(C)C)[C@H]2O)[C@](C)(OC/C=C/c2cnc3ccc(C=O)cc3c2)C[C@@H](C)C(=O)[C@H](C)[C@H]2NC(=O)O[C@@]21C")
0.015

Please look at the following compound next.
## Input Entry `CC[C@H]1OC(=O)[C@@](C)(F)C(=O)[C@H](C)[C@@H](O[C@@H]2O[C@H](C)C[C@H](N(C)C)[C@H]2O)[C@](C)(OC/C=C/c2cnc3ccc(N(C)C)cc3c2)C[C@@H](C)C(=O)[C@H](C)[C@H]2NC(=O)O[C@@]21C` has what MIC?
## Output 0.06
